Source listed as paper PMC11501026.

# method-summary: capillary depletion analysis after in situ brain perfusion
# Assay type: in vivo, mouse
# measurement-conditions: male, BALB/c, mouse, endothelial cell-enriched pellet (capillary depletion), pellet; 2.5 mins; uncorrected; given as fraction; read-out: tissue or CSF to plasma ratio (mean)
quantity-kind: Kp at […]
One number for each entry.

**Query** What value of Kp at […] has been reported for the following molecule? OC[C@H]1O[C@@](CO)(O[C@H]2O[C@H](CO)[C@@H](O)[C@H](O)[C@H]2O)[C@@H](O)[C@@H]1O [[^14C]-sucrose, reference compound]
**Result** 0.00218

###

# method-summary: cross-inhibition, in situ perfusion: [^3H]-arginine with 0.5–500 μM unlabelled ADMA
# Assay type: in vivo, mouse
# measurement-conditions: male, Balb/c, mouse, pineal gland, other: in situ brain perfusion, with unlabelled ADMA 10 µM, Arginine / Sucrose uptake, pineal gland, mean, [3H] Arginine + [14C] Sucrose + 10 uM ADMA, 10 mins, Balb/c ♂, 5ml/min; mean
quantity-kind: Kp at 10 min
Give bare numbers.

**Query** Entry under review: OC[C@H]1O[C@@](CO)(O[C@H]2O[C@H](CO)[C@@H](O)[C@H](O)[C@H]2O)[C@@H](O)[C@@H]1O [[^14C]-sucrose, reference compound] . Reported Kp at 10 min?
**Result** 0.504

###

# method-summary: capillary depletion analysis after in situ brain perfusion
# Type: in vivo, mouse
# measurement-conditions: male, BALB/c, mouse, whole-brain homogenate (capillary depletion), other: in situ brain perfusion, Difference (ADMA minus Sucrose), homogenate, 30 mins, Balb/c ♂, 5ml/min; mean
Counter-ions that a name gives are not always drawn.
quantity-kind: Kp at 30 min, 62.5 nM
Give bare numbers.

**Query** Can you look up the measured Kp at 30 min, 62.5 nM of CN(C)C(N)=NCCC[C@H](N)C(=O)O [ADMA, N^G,N^G-dimethylarginine dihydrochloride] for me?
**Result** 0.122

###

# method-summary: cross-inhibition, in situ perfusion: [^3H]-arginine with 0.5–500 μM unlabelled ADMA
# Format: in vivo, mouse
# measurement-conditions: male, Balb/c, mouse, pellet (cerebral capillary endothelial cells), other: in situ brain perfusion, with unlabelled ADMA 0.5 µM, pellet: [14C] Sucrose, + 0.5 uM ADMA, 10 mins, Balb/c ♂, 5ml/min; mean
quantity-kind: Kp at 10 min
One number for each entry.

**Query** Looking for the measured Kp at 10 min of OC[C@H]1O[C@@](CO)(O[C@H]2O[C@H](CO)[C@@H](O)[C@H](O)[C@H]2O)[C@@H](O)[C@@H]1O [[^14C]-sucrose, reference compound] , can you help?
**Result** 0.00977

###

# method-summary: in situ brain/choroid plexus perfusion: CNS uptake of [^3H]-arginine, [^3H]-ADMA and [^14C]-sucrose (multiple-time and single-time uptake analysis)
# measurement-conditions: male, BALB/c, mouse, pituitary gland, Difference (ADMA minus Sucrose), 2.5 mins, 5ml/min; mean
Structures can show the parent of a compound that is named as a salt.
quantity-kind: Kp at […]
One number for each entry.

**Query** // returns reported Kp at […] for input CN(C)C(N)=NCCC[C@H](N)C(=O)O [ADMA, N^G,N^G-dimethylarginine dihydrochloride]
**Result** 0.585

###

What Kp at […] was measured for each of the following?
# method-summary: capillary depletion analysis after in situ brain perfusion
# Assay type: in vivo, mouse
# measurement-conditions: male, BALB/c, mouse, endothelial cell-enriched pellet (capillary depletion), [3H] ADMA and [14C] Sucrose uptake, pellet, 2.5 mins, 5ml/min; mean
# Experimental: The microvasculature within a sample of brain tissue can be separated from the brain parenchyma using capillary depletion analysis. Following perfusion, the remaining brain tissue after microdissection of the regions described above (typically 200–300 mg) underwent capillary depletion following a method modified for mouse. […]
Structures can show the parent of a compound that is named as a salt.
One number for each entry.

Count: 2. Required value per item: Kp at […].
1. CN(C)C(N)=NCCC[C@H](N)C(=O)O [ADMA, N^G,N^G-dimethylarginine dihydrochloride]
2. OC[C@H]1O[C@@](CO)(O[C@H]2O[C@H](CO)[C@@H](O)[C@H](O)[C@H]2O)[C@@H](O)[C@@H]1O [[^14C]-sucrose, reference compound]

**Result**
[0.0131, 0.00237]
